- Tested on: HCT-116 colon
- measurementDescription: NCI tumour cell line growth inhibition, 48 h; in the data active = GI50 below about 0.43 µM; inactive = the rest
Outcomes: y (active), n (inactive)

1) CN1CCN(c2ccc([N+](=O)[O-])c3no[n+]([O-])c23)CC1
y
2) CC(=O)[CH-]C(=O)c1ccccc1.CC(=O)[CH-]C(=O)c1ccccc1.CC12CC3(C)CC(C)(C1)CC([O-])(C2)C3.CC[O-].[Ti+4]
n
3) OCCCCC#Cc1ccccc1C#Cc1cccs1
n
4) c1cc(-c2cnn3nc(N4CCOCC4)ccc23)nc(NC2CC2)n1
n
5) CC1(C)CC(O)CCCCCCOc2c(CN)cccc2NC(=O)c2nc(cnc2N)-c2ccc(cc2)S1(=O)=O (stereo not given)
y

* * *

- Tested on: SK-MEL-28 melanoma
- measurementDescription: NCI tumour cell line growth inhibition, 48 h
Each record here notes measured TGI.
propertyMeasured: TGI

1) OC1NC2CC3NC(O)C(O)NC3CC2NC1O (stereo unspecified)
> 100 µM
2) O=C(Nc1cc([N+](=O)[O-])cc([N+](=O)[O-])c1)OC1C2CCC1C1OC1C2 (stereo unspecified)
> 50 µM
3) CC[S+](C)c1ccc(-c2c3nc(c(-c4ccc([S+](C)CC)cc4)c4ccc([nH]4)c(-c4ccc([S+](C)CC)cc4)c4nc(c(-c5ccc([S+](C)CC)cc5)c5ccc2[nH]5)C=C4)C=C3)cc1 (stereo unspecified)
> 100 µM
4) CN(C)S(=O)(=O)c1cccc(-c2nc3sc4c(c3c(=O)[nH]2)CCCC4)c1
> 100 µM
5) COC(=O)c1cccc2c1Oc1ccccc1S2
> 100 µM
6) Cc1noc(C)c1N=Nc1ccc2nonc2c1N
> 100 µM

* * *

- Tested on: ACHN renal
- measurementDescription: NCI tumour cell line growth inhibition, 48 h
Where a SMILES comes first, the peptide text is derived from it. [ ]: non-standard residue; d: D form. The star is where a group is joined. X28 = COC1=CC(=O)N(C(=O)[C@@H](O*)C(C)C)[C@H]1Cc1ccccc1; NMeL = CN[C@@H](CC(C)C)C(=O)O; Cbz = O=C(OCc1ccccc1)*
propertyMeasured: TGI

1) CCC(=O)n1c(=O)n(-c2ccc([N+](=O)[O-])cc2)c(=O)n1C(=O)CC
> 100 µM
2) C[n+]1ccc2[nH]c3ccccc3c2c1
> 100 µM
3) Oc1oc(-c2ccccc2)nc1/C=C1/C=NN=N1
> 100 µM
4) COc1cc(CCC(=O)NS(=O)(=O)c2ccccc2)cc(OC)c1OC
> 100 µM
5) O=C1CSC(c2c(O)ccc3ccccc23)N1n1c(=S)[nH]nc(/C=C/c2c(O)ccc3ccccc23)c1=O (configuration not stated)
11.2 µM
6) COC1=CC(=O)N(C(=O)[C@@H](OC(=O)[C@@H]2CCCN2C(=O)[C@@H]2CCCN2C(=O)[C@H](CC(C)C)N(C)C(=O)[C@@H](NC(=O)[C@@H](NC(=O)OCc2ccccc2)C(C)C)C(C)C)C(C)C)[C@H]1Cc1ccccc1 (Cbz-VV[NMeL]PP-X28)
> 100 µM
7) O=C(/C=C/c1ccsc1)c1ccc(Cl)s1
> 100 µM
8) CCCCCC/C=C\CCCCCCCCCc1c(O)c(OC)cc(O)c1CN(C)C
22.5 µM
9) CC(=O)OC1C/C(C)=C/[C@H](O)CC(C)/C=C/[C@@]2(C)CCC(C(C)(C)O)C12 (some centres not stated)
> 100 µM
10) Cc1cc(S(=O)(=O)Nc2nc3ccsc3c(=O)n2Cc2ccccc2)c(S)cc1Cl
> 100 µM
11) O=C1C(Nc2cccc(O)c2)=C(Sc2ccc(Cl)cc2)C(=O)N1Cc1ccccc1
27 µM
12) C=C(C)C1CCC2(CO)C(O)CC3(C)C(CCC4C5(C)CCC(O)C(C)(C)C5CCC43C)C12 (configuration not stated)
15.4 µM
13) CN(C)C(=S)/N=c1\ssc(=S)n1Cc1ccccn1
> 100 µM
14) CC1(C)OCC(C2OC(=O)C(OCc3ccccc3)=C2OCc2ccccc2)O1 (configuration not stated)
> 100 µM
15) CC(Nc1cc(=O)n(C)c(=O)[nH]1)c1ccccc1 (configuration not stated)
> 100 µM
16) COc1ccc2c(c1)Cc1c-2[nH]c2cc3c(cc2c1=O)OCO3
30.5 µM
17) Cc1ccc(-c2nc3n(c2/C=N\N=C(N)N)CCS3)cc1
28.2 µM
18) CCOC(=O)/C(=C\NC#N)c1nc2ccccc2[nH]1
> 100 µM
19) COc1cc(C(=C2SCCS2)c2nccc3cc(OC)c(OC)cc23)c([N+](=O)[O-])cc1OC
> 100 µM
20) O=C(O)c1ccc(/C=N\N(CCO)C2=NCCN2)cc1
> 100 µM
21) Clc1ccc2c(NCCN3CCN(c4ccnc(N5CCCC5)n4)CC3)ccnc2c1
8.01 µM
22) COc1ccc2nc(C3=CN(C4OC(CO)C(O)C(O)C4O)C4C=CC=CC34)sc2c1 (configuration not stated)
46.1 µM
23) O=C(O)C1C2CCC(C2)C1c1ccccc1 (configuration not stated)
> 100 µM
24) CN1CCN(CCCCNc2cc3c4ccccc4c(NCCCCN4CCN(C)CC4)cc3c3ccccc23)CC1
17.3 µM
25) CN(C(=O)C1CC1)C1C2CN3CCC(O2)C13 (configuration not stated)
> 100 µM
26) CN(C)Cc1cc(C(=O)/C=C/c2c(F)cccc2Cl)cc(CN(C)C)c1O
15.4 µM
27) CCOC(=O)C1CCCC1S(=O)(=O)c1ccc(C)cc1 (configuration not stated)
> 100 µM

From: PubChem BioAssay (NCI)
